Assay: self-splicing fitness, log relative to wild type (ln ratio); higher = more splicing; Tetrahymena group I intron in knt gene, E. coli kanamycin selection, DiMSum; sequences stand for … in CUCUCU…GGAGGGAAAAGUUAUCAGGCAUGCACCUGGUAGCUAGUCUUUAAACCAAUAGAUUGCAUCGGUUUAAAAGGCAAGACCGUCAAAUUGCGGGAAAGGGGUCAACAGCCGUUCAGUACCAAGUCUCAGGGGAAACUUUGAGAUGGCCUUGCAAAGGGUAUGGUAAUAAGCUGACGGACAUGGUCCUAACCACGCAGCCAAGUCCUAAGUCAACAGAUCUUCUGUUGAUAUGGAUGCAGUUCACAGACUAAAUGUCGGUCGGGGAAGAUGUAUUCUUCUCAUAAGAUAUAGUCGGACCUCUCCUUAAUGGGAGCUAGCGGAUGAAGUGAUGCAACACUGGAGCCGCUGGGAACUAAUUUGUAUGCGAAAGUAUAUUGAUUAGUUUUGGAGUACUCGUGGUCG;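 further: selection with 25 µg/mL kanamycin versus none on LB agar overnight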
Details: 30 °C
assayEndpoint: self-splicing fitness (ln)

INSERT INTO assay_data (sequencerecord, observedresult) VALUES
  ('AUCCAGCAAUAUUACGGUUA', -0.475),
  ('UGUGAGCAAUAUUACGUCGU', -2.1),
  ('GAAGAGCAAUAUUACGUGAA', -2.94),
  ('UACUAGCAAUAUUACGCUAA', -1.31),
  ('UGCCAGCAAUAUUACGGGCG', -3.1),
  ('UUAUAGCAAUAUUACGACGU', -3.45),
  ('CGCUAGCAAUAUUACGGCAU', -1.89),
  ('AUCUAGCAAUAUUACGGCUG', -1.21),
  ('UUAUAGCAAUAUUACGGCGG', -0.333);

====

The following sequences are shown together with reported self-splicing fitness (ln) values.
Test: self-splicing fitness, log relative to wild type (ln ratio); higher = more splicing; Tetrahymena group I intron in knt gene, E. coli kanamycin selection, DiMSum; sequences stand for … in CUCUCU…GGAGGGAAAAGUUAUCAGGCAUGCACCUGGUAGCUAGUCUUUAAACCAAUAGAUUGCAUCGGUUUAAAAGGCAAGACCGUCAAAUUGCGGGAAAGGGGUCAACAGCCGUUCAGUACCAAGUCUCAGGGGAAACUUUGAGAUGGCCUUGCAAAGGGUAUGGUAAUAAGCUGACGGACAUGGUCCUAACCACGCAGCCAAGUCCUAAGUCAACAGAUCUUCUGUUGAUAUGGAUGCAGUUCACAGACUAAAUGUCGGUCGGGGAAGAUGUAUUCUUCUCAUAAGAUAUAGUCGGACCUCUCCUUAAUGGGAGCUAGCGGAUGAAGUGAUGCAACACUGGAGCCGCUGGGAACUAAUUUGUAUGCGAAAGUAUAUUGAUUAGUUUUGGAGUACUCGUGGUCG
Details: 30 °C
assayEndpoint: self-splicing fitness (ln)

INSERT INTO results (sequencerecord, assayendpoint, observedresult) VALUES
  ('UUAUAGCAAUAUUACGGGCU', 'self-splicing fitness (ln)', -2),
  ('GAGCAGCAAUAUUACGGUGA', 'self-splicing fitness (ln)', -2.25),
  ('CGACAGCAAUAUUACGACAA', 'self-splicing fitness (ln)', -2.08),
  ('CGGAAGCAAUAUUACGGUAU', 'self-splicing fitness (ln)', -4.04),
  ('CGCGAGCAAUAUUACGAUCG', 'self-splicing fitness (ln)', -2.08),
  ('UCUGAGCAAUAUUACGGUCA', 'self-splicing fitness (ln)', -2.5),
  ('CAACAGCAAUAUUACGAUCC', 'self-splicing fitness (ln)', -2.87),
  ('AGCUAGCAAUAUUACGCGAA', 'self-splicing fitness (ln)', -3.09),
  ('CACAAGCAAUAUUACGAGCG', 'self-splicing fitness (ln)', -0.656),
  ('AUGUAGCAAUAUUACGACCC', 'self-splicing fitness (ln)', -0.73),
  ('AGCUAGCAAUAUUACGGGGG', 'self-splicing fitness (ln)', -3.05),
  ('GCUGAGCAAUAUUACGAGCU', 'self-splicing fitness (ln)', -3.66),
  ('UAAAAGCAAUAUUACGCGUU', 'self-splicing fitness (ln)', -2.85),
  ('UAGUAGCAAUAUUACGUGUG', 'self-splicing fitness (ln)', -2.02),
  ('GAUUAGCAAUAUUACGACUU', 'self-splicing fitness (ln)', 0.263),
  ('AAUCAGCAAUAUUACGACCA', 'self-splicing fitness (ln)', -0.116);
